Molecular target: UniProtKB P43220
Sequence (P43220 24-463): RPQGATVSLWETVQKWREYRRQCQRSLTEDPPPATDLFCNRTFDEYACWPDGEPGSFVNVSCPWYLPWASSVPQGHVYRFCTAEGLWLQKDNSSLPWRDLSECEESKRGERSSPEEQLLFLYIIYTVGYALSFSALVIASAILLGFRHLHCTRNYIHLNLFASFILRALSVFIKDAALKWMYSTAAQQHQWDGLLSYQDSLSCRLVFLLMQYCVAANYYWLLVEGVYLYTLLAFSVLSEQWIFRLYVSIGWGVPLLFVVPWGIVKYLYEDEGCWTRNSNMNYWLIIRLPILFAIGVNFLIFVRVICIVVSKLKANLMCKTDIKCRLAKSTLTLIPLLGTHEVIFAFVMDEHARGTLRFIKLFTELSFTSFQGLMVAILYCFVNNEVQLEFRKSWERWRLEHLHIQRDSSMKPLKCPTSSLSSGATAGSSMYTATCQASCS
Test: GLP-1R agonist cAMP stimulation assay
Conditions: HEK293/CRE-Luc cell line stably expressing the GLP-1 Receptor; 30 min at 37° C.; cAMP dynamic 2 Kit
Method: Activation of GLP-1 receptor is known to stimulate cyclic AMP (cAMP) production in cells which indicates primary coupling to the Gas subunit of the G protein heterotrimeric complex. To optimize functional activity directed toward Gas coupling, a HEK293/CRE-Luc cell line developed by HDB stably expressing the GLP-1 Receptor was used. […] After incubation the cAMP assay signal was generated using cAMP dynamic 2 Kit (Cisbio). […] Read the fluorescence at 665 and 615 nm with Reader PerkinElmer EnVision. […]
parameter: EC50

Some molecules with known EC50 results, for comparison:
>  <molecule>
N#CC1(Cc2cc(-c3nnc(C(F)(F)F)[nH]3)cnc2CN2CCC(c3cccc4c3OC(c3ccc(Cl)cc3F)CO4)CC2)CC1 (stereo not drawn)

>  <EC50>
< 1 nM

$$$$
>  <molecule>
N#CC1(Cc2cc(-c3nnc(C(F)(F)F)[nH]3)cnc2CN2CCC(c3ccc(F)c(OCc4ccc(Cl)cc4F)n3)CC2)CC1

>  <EC50>
< 1 nM

$$$$
>  <molecule>
C[C@]1(c2ccc(Cl)cc2F)Oc2cccc(C3CCN(Cc4ncc(-c5noc(=O)[nH]5)cc4CC4(C#N)CC4)CC3)c2O1

>  <EC50>
< 1 nM

$$$$
>  <molecule>
Cc1ccc(C2(C)Oc3cccc(C4=CCN(Cc5ncc(-c6nnc(C(F)(F)F)[nH]6)cc5CC5(C#N)CC5)CC4)c3O2)c(Cl)c1 (stereo not drawn)

>  <EC50>
< 1 nM

$$$$

Bench note: what EC50 did CC1(c2ccc(Cl)cc2F)Oc2cccc(C3CCN(Cc4ncc(-c5nnc(C(F)(F)F)[nH]5)cc4CC4(C#N)CC4)CC3O)c2O1 (single isomer, unassigned) [Example 23] show?
1 to 100 nM

Same question, C[C@]1(c2ccc(Cl)cc2F)Oc2cccc(C3CCN(Cc4ncc(-c5nnc(C(F)(F)F)[nH]5)nc4CC4(C#N)CC4)CC3)c2O1 this time
< 1 nM

Same again, this time with CC1(c2ccc(Cl)cc2F)Oc2cc(F)cc(C3CCN(Cc4ncc(-c5nnc(C(F)(F)F)[nH]5)cc4CC4(C#N)CC4)CC3)c2O1 (single isomer, unassigned) [Example 14]
< 1 nM
